Molecular target: Oxysterols receptor LXR-beta (Homo sapiens, UniProt P55055)
Sequence (P55055 whole entry): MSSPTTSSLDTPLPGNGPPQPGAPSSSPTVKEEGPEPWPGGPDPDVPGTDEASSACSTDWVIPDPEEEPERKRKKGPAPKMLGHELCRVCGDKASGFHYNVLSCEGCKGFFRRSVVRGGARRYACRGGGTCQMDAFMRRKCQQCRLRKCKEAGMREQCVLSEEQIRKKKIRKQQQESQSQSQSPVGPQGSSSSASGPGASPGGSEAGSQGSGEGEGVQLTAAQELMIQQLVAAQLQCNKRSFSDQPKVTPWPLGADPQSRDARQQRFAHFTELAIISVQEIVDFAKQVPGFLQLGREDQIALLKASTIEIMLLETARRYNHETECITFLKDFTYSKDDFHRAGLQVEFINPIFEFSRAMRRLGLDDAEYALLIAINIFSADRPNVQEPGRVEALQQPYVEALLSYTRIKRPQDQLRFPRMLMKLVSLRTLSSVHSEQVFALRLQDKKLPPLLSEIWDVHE
Test: Agonist activity at LXR-beta in human HeLa cells assessed as induction of ABCA1 by beta-galactosidase/luciferase reporter gene assay
Assay type: cell-based
Parameter EC50: see the listing below.
Numeric only. Scale: nM

Quick one: EC50 of CC(C)(O)c1cn(-c2ccc(-c3cc(F)c(CO)c(S(C)(=O)=O)c3)cc2F)c(C(C)(C)c2c(F)cccc2Cl)n1 ?
1

Quick one: EC50 of CC(C)(O)c1cn(-c2ccc(-c3cccc(S(C)(=O)=O)c3)cc2)c(C(C)(C)c2c(Cl)cccc2Cl)n1 ?
18

Quick one: EC50 of CC(c1c(Cl)cccc1Cl)c1nc(C(C)(C)O)cn1-c1ccc(-c2cc(F)c(CO)c(S(C)(=O)=O)c2)cc1F (centres undefined) ?
2

Quick one: EC50 of CC(C)(O)c1cn(-c2ccc(-c3cc(F)c(CO)c(S(C)(=O)=O)c3)cc2F)c(C(C)(C)c2c(Cl)cccc2Cl)n1 ?
0.6

----------
Target: Oxysterols receptor LXR-alpha (Homo sapiens, UniProt Q13133)
Sequence (Q13133 whole entry): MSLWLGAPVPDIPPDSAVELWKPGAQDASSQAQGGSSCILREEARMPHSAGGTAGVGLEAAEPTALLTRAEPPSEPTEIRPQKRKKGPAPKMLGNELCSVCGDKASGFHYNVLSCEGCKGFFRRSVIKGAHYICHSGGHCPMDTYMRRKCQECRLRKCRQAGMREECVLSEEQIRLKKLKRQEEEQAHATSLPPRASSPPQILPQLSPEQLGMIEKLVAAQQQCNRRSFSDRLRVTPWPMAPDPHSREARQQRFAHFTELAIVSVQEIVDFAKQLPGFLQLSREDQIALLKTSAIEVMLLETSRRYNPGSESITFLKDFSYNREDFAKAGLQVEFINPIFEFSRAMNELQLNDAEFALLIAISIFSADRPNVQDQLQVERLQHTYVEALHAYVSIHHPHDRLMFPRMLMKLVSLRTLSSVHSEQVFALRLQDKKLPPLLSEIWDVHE
Assay: Agonist activity at human LXR-alpha expressed in African green monkey CV1 cells measured after 18 to 20 hrs by luciferase reporter gene assay relative to pan agonist 1-(2,4-difluorobenzyl)-2-oxo-6-(4-phenoxyphenyl)-4-(trifluoromethyl)-1,2-dihydropyridine-3-carbonitrile
Assay type: cell-based
Settings: CV-1, human; read-out: Efficacy
Mark F for Emax values under 20%, and T for everything at or above.

These recorded examples may help you get a feel for the data.
INSERT INTO results (compound, classification) VALUES
  ('CC(C)(O)c1cn(-c2ccc(-c3cc(F)c(CO)c(S(C)(=O)=O)c3)cc2F)c(C(C)(C)c2c(F)cccc2Cl)n1', 'F'),
  ('CC(C)(O)c1cn(-c2ccc(-c3cc(F)c(CO)c(S(C)(=O)=O)c3)cc2)c(C(C)(C)c2ccccc2F)n1', 'F'),
  ('CC(C)(O)c1cn(-c2ccc(-c3cc(F)c(CO)c(S(C)(=O)=O)c3)cc2)c(C(C)(C)c2ccccc2Cl)n1', 'T'),
  ('CC(C)(O)c1cn(-c2ccc(-c3cc(F)c(CO)c(S(C)(=O)=O)c3)cc2Cl)c(C(C)(C)c2c(Cl)cccc2Cl)n1', 'F'),
  ('CC(O)c1ccc(-c2ccc(-n3cc(C(C)(C)O)nc3C(C)(C)c3ccccc3Cl)cc2)cc1S(C)(=O)=O (configuration not stated)', 'T');

Could you please find out whether CC(C)(O)c1cn(-c2ccc(-c3cc(F)c(CO)c(S(C)(=O)=O)c3)cc2)c(Cc2c(Cl)cccc2Cl)n1 has Emax that meets 20% or exceeds it?
F

----------
Molecular target: Retinoic acid receptor RXR-alpha/oxysterols receptor LXR-alpha (Homo sapiens, UniProt Q13133)
Sequence (P19793 whole entry, one chain of several): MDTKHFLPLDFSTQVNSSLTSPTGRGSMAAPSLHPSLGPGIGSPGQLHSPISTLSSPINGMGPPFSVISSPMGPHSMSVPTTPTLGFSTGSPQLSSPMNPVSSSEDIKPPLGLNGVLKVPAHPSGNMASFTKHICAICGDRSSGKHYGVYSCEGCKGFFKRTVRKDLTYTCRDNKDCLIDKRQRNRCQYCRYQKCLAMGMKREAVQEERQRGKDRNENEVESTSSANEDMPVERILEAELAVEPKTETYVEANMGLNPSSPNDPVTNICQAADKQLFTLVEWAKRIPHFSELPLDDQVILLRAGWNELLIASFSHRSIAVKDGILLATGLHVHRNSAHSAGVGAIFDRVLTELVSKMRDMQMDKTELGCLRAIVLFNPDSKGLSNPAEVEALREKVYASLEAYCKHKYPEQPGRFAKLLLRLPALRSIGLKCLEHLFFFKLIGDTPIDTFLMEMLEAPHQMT
endpointName: pKi
Conceptually, pKi converts a concentration in mol/L into minus its log10.

INSERT INTO results (compound, resultvalue) VALUES
  ('CC(C)(O)c1cn(-c2ccc(-c3cc(F)c(CO)c(S(C)(=O)=O)c3)cc2F)c(C(C)(C)c2ccccc2Cl)n1', 8.05),
  ('CC(c1c(Cl)cccc1Cl)c1nc(C(C)(C)O)cn1-c1ccc(-c2cc(F)c(CO)c(S(C)(=O)=O)c2)cc1F (configuration not stated)', 7.77),
  ('CC(C)(O)c1cn(-c2ccc(-c3cc(F)c(CO)c(S(C)(=O)=O)c3)cc2)c(C(C)(C)c2ccccc2Cl)n1', 7.28),
  ('CC(C)(O)c1cn(-c2ccc(-c3ccc(CO)c(S(C)(=O)=O)c3)cc2)c(C(C)(C)c2ccccc2Cl)n1', 7.13),
  ('CC(C)(O)c1cn(-c2ccc(-c3cc(F)c(CO)c(S(C)(=O)=O)c3)cc2)c(C(C)(C)c2c(Cl)cccc2Cl)n1', 7.42),
  ('CC(C)(O)c1cn(-c2ccc(-c3cc(F)c(CO)c(S(C)(=O)=O)c3)cc2)c(Cc2c(Cl)cccc2Cl)n1', 7.12),
  ('CC(C)(O)c1cn(-c2ccc(-c3cc(F)c(CO)c(S(C)(=O)=O)c3)cc2Cl)c(C(C)(C)c2c(Cl)cccc2Cl)n1', 7.30),
  ('CC(C)(O)c1cn(-c2ccc(-c3cc(F)c(CO)c(S(C)(=O)=O)c3)cc2F)c(C(C)(C)c2c(F)cccc2Cl)n1', 7.15),
  ('CC(O)c1ccc(-c2ccc(-n3cc(C(C)(C)O)nc3C(C)(C)c3ccccc3Cl)cc2)cc1S(C)(=O)=O (configuration not stated)', 6.74),
  ('CC(C)(O)c1cn(-c2ccc(-c3cc(F)c(CO)c(S(C)(=O)=O)c3)cc2)c(C(C)(C)c2ccccc2F)n1', 7.09);

Quick one: pKi of CC(C)(O)c1cn(-c2ccc(-c3cccc(S(C)(=O)=O)c3)cc2)c(C(C)(C)c2c(Cl)cccc2Cl)n1 ?
7.80

Quick one: pKi of CC(C)(O)c1cn(-c2ccc(-c3ccc(CO)c(S(C)(=O)=O)c3)cc2)c(Cc2ccccc2Cl)n1 ?
7.51

----------
Molecular target: UniProtKB P02768
Sequence (P02768 whole entry): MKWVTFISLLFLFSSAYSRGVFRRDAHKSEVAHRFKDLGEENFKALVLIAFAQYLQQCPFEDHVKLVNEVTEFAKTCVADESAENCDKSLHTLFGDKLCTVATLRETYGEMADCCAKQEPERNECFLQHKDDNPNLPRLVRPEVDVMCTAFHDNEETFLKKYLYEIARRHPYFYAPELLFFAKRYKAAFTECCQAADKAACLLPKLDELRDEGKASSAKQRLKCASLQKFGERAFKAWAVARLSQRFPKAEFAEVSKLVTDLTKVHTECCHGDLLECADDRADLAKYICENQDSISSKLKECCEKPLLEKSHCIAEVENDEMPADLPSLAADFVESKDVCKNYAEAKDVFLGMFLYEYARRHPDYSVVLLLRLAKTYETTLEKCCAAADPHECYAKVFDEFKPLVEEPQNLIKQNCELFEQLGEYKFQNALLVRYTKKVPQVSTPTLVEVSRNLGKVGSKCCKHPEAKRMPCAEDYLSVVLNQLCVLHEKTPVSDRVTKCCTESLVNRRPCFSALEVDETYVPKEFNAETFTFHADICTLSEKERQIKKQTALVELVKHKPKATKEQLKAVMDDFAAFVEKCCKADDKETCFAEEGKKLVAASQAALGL
Test: Binding affinity to human serum albumin at 1 uM measured after 4 hrs by equilibrium dialysis method relative to control
Assay type: ADME
Settings: human serum albumin, read-out: PB
endpointName: fraction unbound at 4 h, 1 µM

State its fraction unbound at 4 h, 1 µM on UniProtKB P02768: CC(C)(O)c1cn(-c2ccc(-c3cccc(S(C)(=O)=O)c3)cc2)c(C(C)(C)c2ccccc2Cl)n1 [BMS-779788]
0.028 to 0.03

----------
Target: Oxysterols receptor LXR-beta (Homo sapiens)
Experiment: Agonist activity at LXR-beta in human whole blood assessed as ABCA1 gene induction by measuring ABCA1 mRNA level after 4 hrs by SYBR-Green dye-based Q-PCR analysis
Type: tissue-based
pEC50: −log10 of the molar value.
Mark no for pEC50 values under 7, and yes for everything at or above.

Could you please find out whether CC(C)(O)c1cn(-c2ccc(-c3cc(F)c(CO)c(S(C)(=O)=O)c3)cc2F)c(C(C)(C)c2c(F)cccc2Cl)n1 has pEC50 that meets 7 or exceeds it?
yes

Could you please find out whether CC(C)(O)c1cn(-c2ccc(-c3cc(F)c(CO)c(S(C)(=O)=O)c3)cc2)c(Cc2c(Cl)cccc2Cl)n1 has pEC50 that meets 7 or exceeds it?
yes

Could you please find out whether CC(C)(O)c1cn(-c2ccc(-c3cc(F)c(CO)c(S(C)(=O)=O)c3)cc2)c(C(C)(C)c2c(Cl)cccc2Cl)n1 has pEC50 that meets 7 or exceeds it?
yes

Could you please find out whether CC(C)(O)c1cn(-c2ccc(-c3cc(F)c(CO)c(S(C)(=O)=O)c3)cc2)c(C(C)(C)c2ccccc2F)n1 has pEC50 that meets 7 or exceeds it?
yes

Could you please find out whether CC(C)(O)c1cn(-c2ccc(-c3cc(F)c(CO)c(S(C)(=O)=O)c3)cc2Cl)c(C(C)(C)c2c(Cl)cccc2Cl)n1 has pEC50 that meets 7 or exceeds it?
yes

Could you please find out whether CC(C)(O)c1cn(-c2ccc(-c3cc(F)c(CO)c(S(C)(=O)=O)c3)cc2F)c(C(C)(C)c2ccccc2Cl)n1 has pEC50 that meets 7 or exceeds it?
yes

Could you please find out whether CC(C)(O)c1cn(-c2ccc(-c3cccc(S(C)(=O)=O)c3)cc2)c(C(C)(C)c2c(Cl)cccc2Cl)n1 has pEC50 that meets 7 or exceeds it?
no

Could you please find out whether CC(C)(O)c1cn(-c2ccc(-c3ccc(CO)c(S(C)(=O)=O)c3)cc2)c(Cc2ccccc2Cl)n1 has pEC50 that meets 7 or exceeds it?
no

Could you please find out whether CC(C)(O)c1cn(-c2ccc(-c3cc(F)c(CO)c(S(C)(=O)=O)c3)cc2F)c(C(C)(C)c2c(Cl)cccc2Cl)n1 has pEC50 that meets 7 or exceeds it?
yes

Could you please find out whether CC(O)c1ccc(-c2ccc(-n3cc(C(C)(C)O)nc3C(C)(C)c3ccccc3Cl)cc2)cc1S(C)(=O)=O (centres undefined) has pEC50 that meets 7 or exceeds it?
no

Could you please find out whether CC(C)(O)c1cn(-c2ccc(-c3cccc(S(C)(=O)=O)c3)cc2)c(C(C)(C)c2ccccc2Cl)n1 has pEC50 that meets 7 or exceeds it?
no

Could you please find out whether CC(C)(O)c1cn(-c2ccc(-c3ccc(CO)c(S(C)(=O)=O)c3)cc2)c(C(C)(C)c2ccccc2Cl)n1 has pEC50 that meets 7 or exceeds it?
no

Could you please find out whether CC(C)(O)c1cn(-c2ccc(-c3cc(F)c(CO)c(S(C)(=O)=O)c3)cc2)c(C(C)(C)c2ccccc2Cl)n1 has pEC50 that meets 7 or exceeds it?
yes

Could you please find out whether CC(c1c(Cl)cccc1Cl)c1nc(C(C)(C)O)cn1-c1ccc(-c2cc(F)c(CO)c(S(C)(=O)=O)c2)cc1F (centres undefined) has pEC50 that meets 7 or exceeds it?
yes
